target: UniProt O00411; assay: homogeneous TR-FRET assay of mitochondrial transcription (inhibition of POLRMT); type: biochemical; settings: isoquinolinone compounds (Table 1)
Metric: IC50 (µM)

Consider the reported IC50 for these compounds:
INSERT INTO measurements (compound, measured) VALUES
  ('COCC(=O)Nc1ccc2c(-c3ccccc3C)c[nH]c(=O)c2c1', 22),
  ('COCC(C#N)Oc1ccc2c(-c3ccccc3C)c[nH]c(=O)c2c1 (single isomer, unassigned) [Example 75]', 4),
  ('COc1ccc2c(-c3ccc(F)cc3Cl)c[nH]c(=O)c2c1', 10);

a = Cc1ccccc1-c1c[nH]c(=O)c2cc(OCC#N)ccc12
b = Cc1ccccc1-c1c[nH]c(=O)c2cc(CO)ccc12
query: Could you kindly indicate whether a or b has the higher IC50 value? // return label of chosen record
result: b
(b: 51 µM, a: 0.2 µM)

a = C[C@@H](Oc1ccc2c(-c3ccc(F)cc3Cl)c[nH]c(=O)c2c1)C(=O)O
b = CC(C)Oc1ccc2c(-c3ccccc3C#N)c[nH]c(=O)c2c1
query: Could you kindly indicate whether a or b has the higher IC50 value? // return label of chosen record
result: b
(b: 14 µM, a: 1 µM)

1 = Cc1cc(F)cc(C)c1-c1c[nH]c(=O)c2cc(OCC(=O)O)ccc12
2 = C[C@@H](Oc1ccc2c(-c3ccc(F)cc3Cl)c[nH]c(=O)c2c1)C(=O)N1CCCC(S(C)(=O)=O)C1 (single isomer, unassigned) [Example 96]
query: Looking only at measured IC50, which entry is lower, 1 or 2 ? // return label of chosen record
result: 2

P = Cc1ccccc1-c1c[nH]c(=O)c2cc(N(C)CC(N)=O)ccc12
Q = Cc1ccccc1-c1c[nH]c(=O)c2cc(O[C@H](C)C(=O)N3CCC[C@H](C(=O)O)C3)ccc12
query: Could you kindly indicate whether P or Q has the higher IC50 value? // return label of chosen record
result: P

----------
target: POLRMT (Homo sapiens, UniProt O00411); experiment: homogeneous TR-FRET assay of mitochondrial transcription (inhibition of POLRMT); type: biochemical; conditions: isoquinolinone compounds (Table 1)
Sequence (O00411 42-1230): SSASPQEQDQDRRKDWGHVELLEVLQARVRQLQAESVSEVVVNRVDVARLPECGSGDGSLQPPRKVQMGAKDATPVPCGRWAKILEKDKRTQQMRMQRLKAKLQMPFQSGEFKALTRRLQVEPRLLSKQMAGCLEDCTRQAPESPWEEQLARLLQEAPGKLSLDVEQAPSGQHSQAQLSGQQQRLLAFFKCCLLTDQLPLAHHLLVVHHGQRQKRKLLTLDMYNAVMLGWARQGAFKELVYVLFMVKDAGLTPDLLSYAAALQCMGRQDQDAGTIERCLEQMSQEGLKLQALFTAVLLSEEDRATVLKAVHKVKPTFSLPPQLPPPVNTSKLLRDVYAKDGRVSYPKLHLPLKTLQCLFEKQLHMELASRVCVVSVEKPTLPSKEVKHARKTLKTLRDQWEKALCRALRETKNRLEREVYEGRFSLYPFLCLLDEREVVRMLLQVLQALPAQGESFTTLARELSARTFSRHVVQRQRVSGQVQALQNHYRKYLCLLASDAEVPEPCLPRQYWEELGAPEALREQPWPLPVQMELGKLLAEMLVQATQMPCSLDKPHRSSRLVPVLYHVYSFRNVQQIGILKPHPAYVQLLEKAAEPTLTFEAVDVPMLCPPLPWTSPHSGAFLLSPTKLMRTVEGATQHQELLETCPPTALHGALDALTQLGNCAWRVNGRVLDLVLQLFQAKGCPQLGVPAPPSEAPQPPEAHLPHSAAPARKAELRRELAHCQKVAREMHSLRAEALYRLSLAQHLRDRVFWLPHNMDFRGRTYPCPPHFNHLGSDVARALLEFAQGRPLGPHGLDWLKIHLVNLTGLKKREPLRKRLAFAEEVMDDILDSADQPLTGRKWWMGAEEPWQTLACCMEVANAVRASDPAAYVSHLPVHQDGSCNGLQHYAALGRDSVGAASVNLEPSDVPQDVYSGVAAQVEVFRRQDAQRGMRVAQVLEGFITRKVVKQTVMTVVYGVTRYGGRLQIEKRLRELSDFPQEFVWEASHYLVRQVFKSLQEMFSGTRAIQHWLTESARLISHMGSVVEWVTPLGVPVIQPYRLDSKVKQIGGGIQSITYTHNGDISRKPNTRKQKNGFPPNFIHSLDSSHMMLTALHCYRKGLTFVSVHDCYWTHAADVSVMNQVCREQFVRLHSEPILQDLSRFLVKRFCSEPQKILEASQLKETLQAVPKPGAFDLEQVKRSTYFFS
pIC50: −log10 of the molar value.
Metric: pIC50

Consider the reported pIC50 for these compounds:
INSERT INTO assay_data (compound, measured) VALUES
  ('C[C@@H](Oc1ccc2c(-c3ccc(F)cc3Cl)c[nH]c(=O)c2c1)C(=O)N1CCC(F)(F)CC1', 6.52),
  ('Cc1cccc(C)c1-c1c[nH]c(=O)c2cc(OCC#N)ccc12', 7.70),
  ('CCOC(=O)C(C)Cc1ccc2c(-c3ccccc3C)c[nH]c(=O)c2c1 (centres unmarked)', 6.00),
  ('C[C@@H](Oc1ccc2c(-c3ccc(F)cc3Cl)c[nH]c(=O)c2c1)C(=O)N1CCC[C@H](C#N)C1', 6.70),
  ('Cc1ccccc1-c1c[nH]c(=O)c2cc(NC(C)C(=O)N3CCOCC3)ccc12 (centres unmarked)', 5.70),
  ('CC(=O)N1CC[C@@H](Oc2ccc3c(-c4ccccc4C)c[nH]c(=O)c3c2)C1', 4.29),
  ('Cc1ccccc1-c1c[nH]c(=O)c2cc(O[C@H](C)C(=O)N3CCC(F)(F)CC3)ccc12', 7.40),
  ('C[C@@H](Oc1ccc2c(-c3ccc(F)cc3Cl)c[nH]c(=O)c2c1)C(=O)N1CCC(C(=O)O)CC1', 7.30),
  ('Cc1sccc1-c1c[nH]c(=O)c2cc(OCC#N)ccc12', 6.00),
  ('Cc1cc(F)ccc1-c1c[nH]c(=O)c2cc(OCC#N)ccc12', 6.40);

I = Cc1ccccc1-c1c[nH]c(=O)c2cc(OC(C)C#N)ccc12 (single isomer, unassigned) [Example 13]
II = Cc1ccccc1-c1c[nH]c(=O)c2cc(NC(C)C(=O)N(C)C)ccc12 (centres unmarked)
III = Cc1ccccc1-c1c[nH]c(=O)c2cc(-c3ccccc3)ccc12
query: rank_up(items): orders items by reported pIC50 in ascending numerical order. Answer by listing the labels in the order asked for.
result: II, I, III

A = CC(=O)N1CCCC(Oc2ccc3c(-c4ccccc4C)c[nH]c(=O)c3c2)C1 (centres unmarked)
B = CCc1ccccc1-c1c[nH]c(=O)c2cc(OCC#N)ccc12
query: Looking only at measured pIC50, which entry is lower, A or B ? // return label of chosen record
result: A
(A: 5.15, B: 6.52)

P = CC(=O)Nc1ccc2c(-c3ccccc3C)c[nH]c(=O)c2c1
Q = C[C@@H](Oc1ccc2c(-c3ccc(F)cc3Cl)c[nH]c(=O)c2c1)C(=O)N1CCOC[C@@H]1CO
query: Could you kindly indicate whether P or Q has the higher pIC50 value? // return label of chosen record
result: Q

----------
target: UniProtKB O00411; assay: homogeneous TR-FRET assay of mitochondrial transcription (inhibition of POLRMT); type: biochemical; details: isoquinolinone compounds (Table 1)
pIC50: −log10 of the molar value.
Metric: pIC50

A = C[C@@H](Oc1ccc2c(-c3ccc(F)cc3Cl)c[nH]c(=O)c2c1)C(=O)N1CCO[C@@H](CO)C1
B = CC[C@@H](Oc1ccc2c(-c3ccccc3C)c[nH]c(=O)c2c1)C(=O)O
C = Cc1c(F)cccc1-c1c[nH]c(=O)c2cc(OCC#N)ccc12
D = Cc1ccccc1-c1c[nH]c(=O)c2cc(OCC(=O)N(C)C)ccc12
query: Put the above entries in order of falling pIC50. Answer by listing the labels in the order asked for.
result: C, B, A, D

----------
target: POLRMT (Homo sapiens, UniProt O00411); test: homogeneous TR-FRET assay of mitochondrial transcription (inhibition of POLRMT); format: biochemical; conditions: isoquinolinone compounds (Table 1)
Metric: IC50 (nM)

Consider the reported IC50 for these molecules:
INSERT INTO assay_data (molecule, study_system, measured) VALUES
  ('Cc1ccccc1-c1c[nH]c(=O)c2cc(OCC(N)=O)ccc12 [Example 63]', 'POLRMT (Homo sapiens, UniProt O00411)', 3000),
  ('C[C@@H](Oc1ccc2c(-c3ccc(F)cc3Cl)c[nH]c(=O)c2c1)C(=O)N1CCS(=O)(=O)CC1 [Example 101]', 'POLRMT (Homo sapiens, UniProt O00411)', 2000),
  ('Cc1ccccc1-c1c[nH]c(=O)c2cc(O[C@H](C)C(=O)N3CC[C@H](C(=O)O)C3)ccc12 [Example 35]', 'POLRMT (Homo sapiens, UniProt O00411)', 400);

a = C[C@@H](Oc1ccc2c(-c3ccc(F)cc3Cl)c[nH]c(=O)c2c1)C(=O)N1CCOC[C@@H]1C(N)=O [Example 122]
b = Cc1ccccc1-c1c[nH]c(=O)c2cc(O[C@H](C)C(=O)N3C4CCCC3CC4)ccc12 [Example 86]
c = Cc1ccccc1-c1c[nH]c(=O)c2cc(NCC(N)=O)ccc12 [Example 70]
d = Cc1c(F)cccc1-c1c[nH]c(=O)c2cc(OCC(N)=O)ccc12 [Example 136]
e = COCC(Oc1ccc2c(-c3ccccc3C)c[nH]c(=O)c2c1)C(N)=O (single isomer, unassigned) [Example 53]
query: rank_up(items): orders items by reported IC50 in ascending numerical order. Answer by listing the labels in the order asked for.
result: b, a, d, c, e

----------
molecular target: POLRMT (Homo sapiens, UniProt O00411); experiment: homogeneous TR-FRET assay of mitochondrial transcription (inhibition of POLRMT); format: biochemical; conditions: isoquinolinone compounds (Table 1)
pIC50: −log10 of the molar value.
Metric: pIC50

Consider the reported pIC50 for these compounds:
INSERT INTO measurements (compound, study_system, measured) VALUES
  ('N#CCOc1ccc2c(-c3ccc(F)cc3Cl)c[nH]c(=O)c2c1', 'POLRMT (Homo sapiens, UniProt O00411)', 6.05),
  ('C[C@@H](Oc1ccc2c(-c3ccc(F)cc3Cl)c[nH]c(=O)c2c1)C(=O)N1CCO[C@H](CO)C1', 'POLRMT (Homo sapiens, UniProt O00411)', 6.22),
  ('C[C@@H](Oc1ccc2c(-c3ccc(F)cc3Cl)c[nH]c(=O)c2c1)C(=O)N1CCCC(F)(F)C1', 'POLRMT (Homo sapiens, UniProt O00411)', 7.10),
  ('C[C@@H](Oc1ccc2c(-c3ccc(F)cc3Cl)c[nH]c(=O)c2c1)C(=O)N1CCOC[C@H]1C(N)=O', 'POLRMT (Homo sapiens, UniProt O00411)', 6.52),
  ('C[C@@H](Oc1ccc2c(-c3ccc(F)cc3Cl)c[nH]c(=O)c2c1)C(=O)N1CC[S+]([O-])CC1', 'POLRMT (Homo sapiens, UniProt O00411)', 5.52);

1 = CCC(C)Oc1ccc2c(-c3ccccc3C)c[nH]c(=O)c2c1 (stereo not drawn)
2 = C[C@@H](Oc1ccc2c(-c3ccc(F)cc3Cl)c[nH]c(=O)c2c1)C(=O)N1CCS(=N)(=O)CC1
query: Could you kindly indicate whether 1 or 2 has the higher pIC50 value? // return label of chosen record
result: 1
(1: 6.70, 2: 5.70)

a = C[C@@H](Oc1ccc2c(-c3ccc(F)cc3Cl)c[nH]c(=O)c2c1)C(=O)N1CC2CCC(C1)O2
b = C[C@@H](Oc1ccc2c(-c3ccc(F)cc3Cl)c[nH]c(=O)c2c1)C(=O)N1C2CCCC1CC2
query: Looking only at measured pIC50, which entry is lower, a or b ? // return label of chosen record
result: a
(a: 6.70, b: 7.52)

a = C[C@@H](Oc1ccc2c(-c3ccc(F)cc3Cl)c[nH]c(=O)c2c1)C(=O)N1CCCC(S(C)(=O)=O)C1 (single isomer, unassigned) [Example 95]
b = COCCOc1ccc2c(-c3ccccc3C)c[nH]c(=O)c2c1
c = Cc1ccccc1-c1c[nH]c(=O)c2cc(O[C@H](C)C(=O)O)ccc12
d = C[C@H]1CN(C(=O)[C@@H](C)Oc2ccc3c(-c4ccc(F)cc4Cl)c[nH]c(=O)c3c2)C[C@H](C)O1 (single isomer, unassigned) [Example 125]
query: rank_up(items): orders items by reported pIC50 in ascending numerical order. Answer by listing the labels in the order asked for.
result: b, a, c, d
